# EXPERIMENTAL_PROTOCOL: resazurin metabolic signal in A549 cells – cell-based, resazurin fluorescence, 24 h, PK04 Diversity Set, profiling panel (AID 1171); also: test concentration not given here
# ASSAY_CONTEXT: A549 viability, higher = more signal, called active from +8 up or from −8 down
Entries are sorted into classes by z-score as follows: category 1 (below -0.7), category 2 (-0.7 to below -0.07), category 3 (-0.07 or more)

Solved entries (count: 5):
>>> class_label("CCCCCC1=C2CNC(Cc3ccccc3)(C(=O)OC)C=C2C(C)C1=O (centres undefined)")
"category 2"
>>> class_label("NC(=O)NCC#Cc1ccc2c(c1)[C@]1(C(=O)N2)[C@H](c2ccc(OCCO)cc2)N2[C@H](c3ccccc3)[C@H](c3ccccc3)OC(=O)[C@H]2[C@@H]1C(=O)O")
"category 3"
>>> class_label("C=C(/C(=C/C[C@@H](OC(C)=O)c1cccc(OCCO)c1)c1cnc2ccccc2c1)C(C)C")
"category 2"
>>> class_label("COC(=O)[C@@]1(Cc2ccccc2)N=C(c2ccc(OCCCO)cc2)O[C@H]1c1ccccc1CN=[N+]=[N-]")
"category 1"
>>> class_label("CN1C(=O)C2C(C1=O)C1C=C(CCCO)C2C(C2CC2)N1Cc1cccc(OC(F)(F)F)c1 (centres undefined)")
"category 3"

Lookup: The entry to classify is "COc1ccc(C(=O)Nc2cccc(CN3C(=O)[C@]4(O[C@H](CC(=O)N5Cc6ccccc6C[C@H]5CO)[C@@H]([Si](C)(C)c5ccc(OC)cc5)[C@@H]4C)c4ccccc43)c2)cc1" ; which class holds it?
Found: category 1

Lookup: Next compound up: "O=C(NCc1ccccc1)[C@@H]1c2ccccc2C(=O)N(Cc2ccc(OC(F)(F)F)cc2)[C@H]1c1ccc(CO)cc1"
Found: category 3

Lookup: Okay, and [N-]=[N+]=Nc1ccccc1C[C@@]1(C(=O)NCC(O)CO)N=C(c2ccc(OCCCO)cc2)O[C@@H]1c1ccccc1 (some centres undefined) ?
Found: category 2

Lookup: Lookup "COCCOC(=O)N1C(=O)[C@@]2(c3cc(C#CCC(C(=O)OC)C(=O)OC)ccc31)[C@H](C(=O)Nc1nc3ccccc3s1)[C@H]1C(=O)O[C@H](c3ccccc3)[C@H](c3ccccc3)N1[C@@H]2c1ccc(O)cc1"
Found: category 3

Lookup: Can you handle "COc1ccc([Si](C)(C)[C@@H]2[C@@H](CC(=O)N(CCO)Cc3ccccc3)O[C@]3(C(=O)N(Cc4ccc(N5C(=O)c6cccc7cccc5c67)cc4)c4ccccc43)[C@H]2C)cc1" next?
Found: category 1

----------
# System: Sonic hedgehog protein (Shh)
# EXPERIMENTAL_PROTOCOL: Sonic hedgehog microarray binding compounds – biochemical, small-molecule microarray, 635/667 nm fluorescence, primary screen (AID 1151);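 also: Shh protein binding to compounds spotted on small-molecule microarray slides; score combines spot fluorescence intensity with signal-to-noise across triplicate slides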
# ASSAY_CONTEXT: 635 nm fluorescence, higher = more signal
Hi, to clarify the labels: Met covers composite z-score from -0.1 upward, Not met covers anything below -0.1.

>>> class_label("COC(=O)C1(Cc2ccccc2)C=C2C(=C(C)C(=O)C2C)CN1 (stereo not drawn)")
"Not met"
>>> class_label("COc1ccc(C(O)C2C=CC3C(=O)NC(=O)C3N2Nc2ccc(Cl)cc2Cl)c2ccccc12 (stereo not drawn)")
"Met"
>>> class_label("O=C(NCCN1CCOCC1)[C@@H]1c2ccccc2C(=O)N(Cc2ccccc2C(F)(F)F)[C@H]1c1ccc(CO)cc1")
"Not met"
>>> class_label("O=C(NC1CC1)[C@@H]1c2ccccc2C(=O)N(CC23CC4CC(CC(C4)C2)C3)[C@H]1c1ccc(CO)cc1")
"Met"
>>> class_label("COCCCN1C(=O)[C@@]2(c3ccc([N+](=O)[O-])cc3)CC(=O)N(CC34CC5CC(CC(C5)C3)C4)[C@@H]2c2ccc(CO)cc21")
"Met"

Lookup: Is composite z-score for "COC(=O)[C@@]1(Cc2ccccc2)[C@H]2c3cc(C(=O)N(C)C)n(Cc4ccc(C(F)(F)F)nc4)c3C[C@H]2CN1C(=O)c1ccccc1" at or above -0.1?
Found: Not met

Lookup: Similarly, "COC(=O)[C@@]1(Cc2ccc(F)cc2)[C@H]2c3cc(C(=O)N(C)C)n(CCc4ccc(O)c(O)c4)c3C[C@H]2CN1C(=O)c1ccccc1" ?
Found: Not met

Lookup: Now the same for "CCOC(=O)C1=CC[C@@H](c2ccc(OC)cc2)N(S(=O)(=O)c2ccc(C)cc2)[C@H]1c1ccc(C)cc1"
Found: Not met

The values you see were collected from PubChem BioAssay.
